These measurements were taken from patent US20250332300A1.

Molecular target: human HER2 (23-652) (Homo sapiens, UniProt P04626)
Assay: Surface plasmon resonance (SPR) for assessment of peptide affinity, human HER2
Type: binding
Set-up: towards human HER2 (23-652) and mouse HER2 (23-653); made in house
Settings: SPR, human HER2 extracellular domain, 25° C., 1:1 binding model; read-out: huHER2-SPR-ONC KD
Procedure: Each protein was immobilized either onto a SA sensorchip (Cytiva, BR-1005-31) or CM5 sensorchip (Cytiva, BR-1005-30) to a density of 800-2000 RU. […] For the assay setup the same conditions (flow rate, running buffer, peptide dilution) as described above were used. In a first step the Anti Fc IgG Ab (from Human Antibody Capture Kit, Ref. 29234600, Cytiva) was diluted into acetate pH 5.0 at 25 ug/mL and immobilized at a flow rate of 10 uL/min over 360 s to reach a density around 6000 RU. […]
Positions of bridges follow the written chain, without caps; N, C: chain ends. Non-standard residues stand in square brackets, D forms with d. Residues, ends and D or L forms follow the SMILES beside them. Trp(5-OH) = N[C@@H](Cc1c[nH]c2ccc(O)cc12)C(=O)O; NMehPhe = CN[C@@H](CCc1ccccc1)C(=O)O; NMeAoc(2) = CCCCCC[C@H](NC)C(=O)O; Aad = N[C@@H](CCCC(=O)O)C(=O)O; Gly(cPr) = N[C@H](C(=O)O)C1CC1; NMeK = CN[C@@H](CCCCN)C(=O)O; NMeDap = CN[C@@H](CN)C(=O)O
propertyMeasured: Kd (nM)
Please state the figure in nM; there is no need to write the unit.

Task: Query: Kd; subject: CCCCCC[C@@H](C(N)=O)N(C)C(=O)[C@@H]1CNC(=O)CCC[C@H](NC(C)=O)C(=O)N[C@@H](Cc2ccc(O)cc2)C(=O)N[C@@H](CO)C(=O)N(C)[C@@H](CCc2ccccc2)C(=O)N(C)[C@@H](CCCCNC(C)=O)C(=O)N[C@@H](Cc2c[nH]c3ccc(O)cc23)C(=O)N[C@@H](Cc2c[nH]c3ccccc23)C(=O)N[C@@H](C2CC2)C(=O)N1C [Example A13] (Ac-[Aad]YS[NMehPhe][NMeK](Ac)[Trp(5-OH)]W[Gly(cPr)][NMeDap][NMeAoc(2)]-NH2; lactam 1-9)
Result: 40

----------
Catalogue of Kd readings, one per entry.
Biological target: human HER2 (23-652) (Homo sapiens)
Assay: Surface plasmon resonance (SPR) for assessment of peptide affinity, human HER2
Assay type: binding
Design: towards human HER2 (23-652) and mouse HER2 (23-653); made in house
Counter-ions that a name gives are not always drawn. Starred links: 1 amine or outer side, 2 acyl side, 3 side chain; linkers in the order of their positions; H or OH if unused. Positions of bridges follow the written chain, without caps; N, C: chain ends. Non-standard residues stand in square brackets, D forms with d. Residues, ends and D or L forms follow the SMILES beside them. Trp(5-OH) = N[C@@H](Cc1c[nH]c2ccc(O)cc12)C(=O)O; NMePhe(4-F) = CN[C@@H](Cc1ccc(F)cc1)C(=O)O; NMehPhe = CN[C@@H](CCc1ccccc1)C(=O)O; X3 = NC[C@H](CCC(=O)[*:2])C(=O)[*:1]; NMeE = CN[C@@H](CCC(=O)O)C(=O)O; Gly(cPr) = N[C@H](C(=O)O)C1CC1; NMeDap = CN[C@@H](CN)C(=O)O; NMeC = CN[C@@H](CS)C(=O)O; NMeS = CN[C@@H](CO)C(=O)O; Dap = NC[C@H](N)C(=O)O
Please state the figure in nM; there is no need to write the unit.

Illustrative cases are given below, each with its answer.
>  <compound>
CN1C(=O)[C@H](Cc2ccc(O)cc2)NC(=O)[C@@H](N)CCC(=O)NC[C@@H](C(=O)N(C)[C@@H](Cc2ccc(F)cc2)C(N)=O)N(C)C(=O)[C@H](C2CC2)NC(=O)[C@H](Cc2c[nH]c3ccccc23)NC(=O)[C@H](Cc2c[nH]c3ccc(O)cc23)NC(=O)[C@H](CO)N(C)C(=O)[C@H](CCc2ccccc2)N(C)C(=O)[C@@H]1CO [Example A38, TFA salt] (H-EY[NMeS][NMehPhe][NMeS][Trp(5-OH)]W[Gly(cPr)][NMeDap][NMePhe(4-F)]-NH2; lactam 1-9)

>  <targetUnderTest>
human HER2 (23-652) (Homo sapiens)

>  <Kd, nM>
46

$$$$
>  <compound>
CN1C(=O)[C@H](CO)NC(=O)[C@H](Cc2ccc(O)cc2)NC(=O)[C@@H](N)CNC(=O)CC[C@@H](C(=O)N(C)[C@@H](Cc2ccc(F)cc2)C(N)=O)N(C)C(=O)[C@H](C2CC2)NC(=O)[C@H](Cc2c[nH]c3ccccc23)NC(=O)[C@H](Cc2c[nH]c3ccc(O)cc23)NC(=O)[C@H](CO)N(C)C(=O)[C@@H]1CCc1ccccc1 [Example A34, TFA salt] (H-[Dap]YS[NMehPhe][NMeS][Trp(5-OH)]W[Gly(cPr)][NMeE][NMePhe(4-F)]-NH2; lactam 1-9)

>  <targetUnderTest>
human HER2 (23-652) (Homo sapiens)

>  <Kd, nM>
68

$$$$
>  <compound>
CN1C(=O)[C@H](CO)NC(=O)[C@H](Cc2ccc(O)cc2)NC(=O)[C@H](CN)CCC(=O)NC[C@@H](C(=O)N(C)[C@@H](Cc2ccc(F)cc2)C(N)=O)N(C)C(=O)[C@H](C2CC2)NC(=O)[C@H](Cc2c[nH]c3ccccc23)NC(=O)[C@H](Cc2c[nH]c3ccc(O)cc23)NC(=O)[C@H](CO)N(C)C(=O)[C@@H]1CCc1ccccc1 [Example A39, TFA salt] (YS[NMehPhe][NMeS][Trp(5-OH)]W[Gly(cPr)][NMeDap][NMePhe(4-F)]-NH2; linker N-8 via X3)

>  <targetUnderTest>
human HER2 (23-652) (Homo sapiens)

>  <Kd, nM>
148

$$$$
>  <compound>
CN1C(=O)[C@H](CO)NC(=O)[C@H](Cc2ccc(O)cc2)NC(=O)[C@@H](N)CSSC[C@@H](C(=O)N(C)[C@@H](Cc2ccc(F)cc2)C(N)=O)N(C)C(=O)[C@H](C2CC2)NC(=O)[C@H](Cc2c[nH]c3ccccc23)NC(=O)[C@H](Cc2c[nH]c3ccc(O)cc23)NC(=O)[C@H](CO)N(C)C(=O)[C@@H]1CCc1ccccc1 [Example A54, TFA salt] (H-CYS[NMehPhe][NMeS][Trp(5-OH)]W[Gly(cPr)][NMeC][NMePhe(4-F)]-NH2; disulfide 1-9)

>  <targetUnderTest>
human HER2 (23-652) (Homo sapiens)

>  <Kd, nM>
1710

$$$$

Consider the additional compound presented here.
Task: Query: Kd; subject: CN1C(=O)[C@H](CO)NC(=O)[C@H](Cc2ccc(O)cc2)NC(=O)[C@@H](N)CCC(=O)NC[C@@H](C(=O)N(C)[C@@H](Cc2ccc(F)cc2)C(N)=O)N(C)C(=O)[C@H](C2CC2)NC(=O)[C@H](Cc2c[nH]c3ccccc23)NC(=O)[C@H](Cc2c[nH]c3ccc(O)cc23)NC(=O)[C@H](CCCCNC(=O)C(F)(F)F)N(C)C(=O)[C@@H]1CCc1ccccc1 [Example A33, TFA salt]
Result: 15

----------
Target: mouse HER2 (23-653) (Mus musculus)
Assay: Surface plasmon resonance (SPR) for assessment of peptide affinity, mouse HER2
Type: binding
Parameters: mouse HER2 (23-653) using a Cy5 labeled peptide as a probe; made in house
Conditions: SPR, mouse HER2 extracellular domain, 25° C., 1:1 binding model; read-out: moHER2-SPR-ONC KD
Counter-ions that a name gives are not always drawn. Starred links: 1 amine or outer side, 2 acyl side, 3 side chain; linkers in the order of their positions; H or OH if unused. Positions of bridges follow the written chain, without caps; N, C: chain ends. Non-standard residues stand in square brackets, D forms with d. Residues, ends and D or L forms follow the SMILES beside them. Trp(5-OH) = N[C@@H](Cc1c[nH]c2ccc(O)cc12)C(=O)O; NMePhe(4-F) = CN[C@@H](Cc1ccc(F)cc1)C(=O)O; X2 = O=C([C@H](Cc1ccc(O)nc1)N[*:1])[*:2]; NMehPhe = CN[C@@H](CCc1ccccc1)C(=O)O; Gly(cPr) = N[C@H](C(=O)O)C1CC1; NMeD = CN[C@@H](CC(=O)O)C(=O)O; NMehCys = CN[C@@H](CCS)C(=O)O; NMeK = CN[C@@H](CCCCN)C(=O)O; NMeDap = CN[C@@H](CN)C(=O)O; 3Amb = NCc1cccc(C(=O)O)c1; NMeC = CN[C@@H](CS)C(=O)O; NMeS = CN[C@@H](CO)C(=O)O; Dap = NC[C@H](N)C(=O)O; X5 = O=C(C[*:2])[*:1]
Catalogue of pKd readings, one per entry.
Reminder that pKd means the negative base-10 logarithm of the concentration expressed in mol/L.

>  <compound>
CC(=O)NCCCC[C@H]1C(=O)N[C@@H](Cc2c[nH]c3ccc(O)cc23)C(=O)N[C@@H](Cc2c[nH]c3ccccc23)C(=O)N[C@@H]([C@H](C)O)C(=O)N(C)[C@H](C(=O)N(C)[C@@H](Cc2ccc(F)cc2)C(=O)N[C@@H](CCCCNC(=O)N2CCN(CC(=O)O)CC2)C(N)=O)CNC(=O)CC[C@H](NC(=O)CCNC(=O)CN2CCN(CC(=O)O)CCN(CC(=O)O)CCN(CC(=O)O)CC2)C(=O)N[C@@H](Cc2ccc(O)cc2)C(=O)N[C@@H](CO)C(=O)N(C)[C@@H](CCc2ccccc2)C(=O)N1C [Example C28]

>  <targetUnderTest>
mouse HER2 (23-653) (Mus musculus)

>  <propertyMeasured>
pKd

>  <value>
8.51

$$$$

Task: Query: pKd; subject: CC(=O)NCCCC[C@H]1C(=O)N[C@@H](Cc2c[nH]c3ccc(O)cc23)C(=O)N[C@@H](Cc2c[nH]c3ccccc23)C(=O)N[C@@H](C2CC2)C(=O)N(C)[C@H](C(=O)N(C)[C@@H](Cc2ccc(F)cc2)C(N)=O)CCSSC[C@H](N)C(=O)N[C@@H](Cc2ccc(O)cc2)C(=O)N[C@@H](CO)C(=O)N(C)[C@@H](CCc2ccccc2)C(=O)N1C [Example A56, TFA salt] (H-CYS[NMehPhe][NMeK](Ac)[Trp(5-OH)]W[Gly(cPr)][NMehCys][NMePhe(4-F)]-NH2; disulfide 1-9)
Result: 6.38

Task: Query: pKd; subject: CC(=O)N[C@H]1CCC(=O)NC[C@@H](C(=O)N(C)[C@@H](Cc2ccc(F)cc2)C(N)=O)N(C)C(=O)[C@H](C2CC2)NC(=O)[C@H](Cc2c[nH]c3ccccc23)NC(=O)[C@H](Cc2c[nH]c3ccc(O)cc23)NC(=O)[C@H](CO)N(C)C(=O)[C@H](CCc2ccccc2)N(C)C(=O)[C@H](CO)NC(=O)[C@H](Cc2ccc(O)nc2)NC1=O [Example A1] (Ac-E[X2]S[NMehPhe][NMeS][Trp(5-OH)]W[Gly(cPr)][NMeDap][NMePhe(4-F)]-NH2; lactam 1-9)
Result: 7.01

Task: Query: pKd; subject: CC(=O)N[C@H]1CCCC(=O)NC[C@@H](C(=O)N(C)[C@@H](Cc2ccc(F)cc2)C(=O)N[C@@H](CCCCNC(=O)CN2CCN(CC(=O)O)CCN(CC(=O)O)CCN(CC(=O)O)CC2)C(N)=O)N(C)C(=O)[C@H]([C@H](C)O)NC(=O)[C@H](Cc2c[nH]c3ccccc23)NC(=O)[C@H](Cc2c[nH]c3ccc(O)cc23)NC(=O)[C@H](CCCCNC(=O)CCO)N(C)C(=O)[C@H](CCc2ccccc2)N(C)C(=O)[C@H](CO)NC(=O)[C@H](Cc2ccc(O)cc2)NC1=O [Example B7]
Result: 9.10

Task: Query: pKd; subject: CC(=O)NCCCC[C@H]1C(=O)N[C@@H](Cc2c[nH]c3ccc(O)cc23)C(=O)N[C@@H](Cc2c[nH]c3ccccc23)C(=O)N[C@@H](C2CC2)C(=O)N(C)[C@H](C(=O)N(C)[C@@H](Cc2ccc(F)cc2)C(N)=O)CSCC(=O)NC[C@H](NC(C)=O)C(=O)N[C@@H](Cc2ccc(O)cc2)C(=O)N[C@@H](CO)C(=O)N(C)[C@@H](CCc2ccccc2)C(=O)N1C [Example A51] (Ac-[Dap]YS[NMehPhe][NMeK](Ac)[Trp(5-OH)]W[Gly(cPr)][NMeC][NMePhe(4-F)]-NH2; linker 1-9 via X5)
Result: 8.00

Task: Query: pKd; subject: CN1C(=O)[C@H](CO)NC(=O)[C@H](Cc2ccc(O)cc2)NC(=O)c2cccc(c2)CNC(=O)C[C@@H](C(=O)N(C)[C@@H](Cc2ccc(F)cc2)C(N)=O)N(C)C(=O)[C@H](C2CC2)NC(=O)[C@H](Cc2c[nH]c3ccccc23)NC(=O)[C@H](Cc2c[nH]c3ccc(O)cc23)NC(=O)[C@H](CO)N(C)C(=O)[C@@H]1CCc1ccccc1 [Example A24] ([3Amb]YS[NMehPhe][NMeS][Trp(5-OH)]W[Gly(cPr)][NMeD][NMePhe(4-F)]-NH2; lactam N-9)
Result: 5.29

Task: Query: pKd; subject: COCCOCCOCCOCCOCCOCCOCCOCCOCCOCCOCCOCCC(=O)N[C@H]1CCCC(=O)NC[C@@H](C(=O)N(C)[C@@H](Cc2ccc(F)cc2)C(=O)N[C@@H](CCCCNC(=O)CN2CCN(CC(=O)O)CCN(CC(=O)O)CCN(CC(=O)O)CC2)C(N)=O)N(C)C(=O)[C@H](C2CC2)NC(=O)[C@H](Cc2c[nH]c3ccccc23)NC(=O)[C@H](Cc2c[nH]c3ccc(O)cc23)NC(=O)[C@H](CCCCNC(C)=O)N(C)C(=O)[C@H](CCc2ccccc2)N(C)C(=O)[C@H](CO)NC(=O)[C@H](Cc2ccc(O)cc2)NC1=O [Example C37]
Result: 9.52

Task: Query: pKd; subject: COCCOCCOCCOCCOCCOCCOCCOCCOCCOCCOCCOCCC(=O)N[C@H]1CCCC(=O)NC[C@@H](C(=O)N(C)[C@@H](Cc2ccc(F)cc2)C(=O)N[C@@H](CCCCNC(=O)CN2CCN(CC(=O)O)CCN(CC(=O)O)CCN(CC(=O)O)CC2)C(N)=O)N(C)C(=O)[C@H](C2CC2)NC(=O)[C@H](Cc2c[nH]c3ccccc23)NC(=O)[C@H](Cc2c[nH]c3ccc(O)cc23)NC(=O)[C@H](CCCCNC(C)=O)N(C)C(=O)[C@H](CCc2ccccc2)N(C)C(=O)[C@H](CO)NC(=O)[C@H](Cc2ccc(O)cc2)NC1=O [Example C2]
Result: 9.70
